Molecular target: Glutamate NMDA receptor; Grin1/Grin2c (Rattus norvegicus, UniProt P35439+Q00961)
Sequence (Q00961 whole entry, other chains not shown): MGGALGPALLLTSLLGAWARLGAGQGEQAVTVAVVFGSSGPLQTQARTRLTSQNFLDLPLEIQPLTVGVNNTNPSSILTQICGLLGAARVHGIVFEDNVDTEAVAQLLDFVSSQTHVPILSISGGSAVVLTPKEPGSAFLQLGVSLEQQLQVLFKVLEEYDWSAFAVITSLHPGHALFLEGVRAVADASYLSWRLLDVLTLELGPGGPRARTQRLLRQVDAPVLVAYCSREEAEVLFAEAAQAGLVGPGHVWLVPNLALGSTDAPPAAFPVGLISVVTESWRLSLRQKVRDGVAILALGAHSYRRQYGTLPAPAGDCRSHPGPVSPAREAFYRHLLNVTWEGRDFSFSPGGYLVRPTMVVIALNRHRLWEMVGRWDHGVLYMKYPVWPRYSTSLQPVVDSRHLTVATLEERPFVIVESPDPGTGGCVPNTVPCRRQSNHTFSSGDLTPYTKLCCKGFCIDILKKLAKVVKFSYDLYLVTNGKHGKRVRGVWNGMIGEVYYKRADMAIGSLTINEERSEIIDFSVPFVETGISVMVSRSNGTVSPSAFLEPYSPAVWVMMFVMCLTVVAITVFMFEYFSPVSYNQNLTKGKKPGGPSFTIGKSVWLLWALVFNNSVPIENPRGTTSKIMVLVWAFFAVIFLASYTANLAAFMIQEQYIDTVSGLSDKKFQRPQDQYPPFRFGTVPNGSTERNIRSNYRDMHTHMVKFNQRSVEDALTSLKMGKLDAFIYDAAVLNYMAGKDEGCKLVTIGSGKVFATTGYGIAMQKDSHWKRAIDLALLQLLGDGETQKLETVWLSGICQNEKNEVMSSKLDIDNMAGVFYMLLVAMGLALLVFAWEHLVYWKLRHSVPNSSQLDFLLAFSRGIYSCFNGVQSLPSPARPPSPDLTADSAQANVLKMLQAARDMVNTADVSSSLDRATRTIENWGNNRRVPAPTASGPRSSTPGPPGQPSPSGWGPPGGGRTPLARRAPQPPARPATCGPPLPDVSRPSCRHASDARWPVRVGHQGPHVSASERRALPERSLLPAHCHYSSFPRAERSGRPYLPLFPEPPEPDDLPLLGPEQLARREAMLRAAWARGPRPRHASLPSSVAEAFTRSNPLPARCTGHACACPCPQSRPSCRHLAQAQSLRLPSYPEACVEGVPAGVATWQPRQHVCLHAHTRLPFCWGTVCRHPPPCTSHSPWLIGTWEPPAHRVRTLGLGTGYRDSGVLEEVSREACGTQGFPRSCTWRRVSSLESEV
Test: Antagonist activity at rat recombinant NR1-NR2C receptor expressed in Xenopus oocytes at holding potential of -40mV by two-electrode voltage-clamp electrophysiology
fulfilled if IC50 is below 10 µM. not fulfilled if not; exact matches included in not fulfilled.

Illustrative cases are given below, each with its answer.
>>> df
                               query_smiles  qualitative_label
0  COc1ccc2nc(/C=C/c3ccc([N+](=O)[O-])cc3)n(-c3cccc(C(=O)O)c3)c(=O)c2c1      not fulfilled
1  O=C(O)c1ccc(-n2c(/C=C/c3cccc([N+](=O)[O-])c3)nc3c(Cl)cccc3c2=O)cc1      not fulfilled

Does `COc1ccc2nc(/C=C/c3cccc([N+](=O)[O-])c3)n(-c3ccc(C(=O)O)cc3)c(=O)c2c1` have IC50 strictly under 10 µM?
fulfilled

Note, next up: `O=c1c2ccccc2nc(/C=C/c2cccc([N+](=O)[O-])c2)n1-c1ccccc1`
not fulfilled

Note, next up: `O=C(O)c1ccc(-n2c(/C=C/c3cccc([N+](=O)[O-])c3)nc3cc4c(cc3c2=O)OCCO4)cc1`
not fulfilled

Note, next up: `O=C(O)c1cccc(-n2c(/C=C/c3ccccc3[N+](=O)[O-])nc3ccccc3c2=O)c1`
fulfilled

Note, next up: `CSc1ccc(/C=C/c2nc3ccccc3c(=O)n2-c2ccc(C(=O)O)cc2)cc1`
not fulfilled

Note, next up: `COc1ccccc1-n1c(/C=C/c2ccc([N+](=O)[O-])cc2)nc2ccccc2c1=O`
not fulfilled

Note, next up: `Cc1nc2ccc(I)cc2c(=O)n1-c1ccc(C(=O)O)cc1`
not fulfilled

###

Molecular target: Glutamate NMDA receptor; Grin1/Grin2a (Rattus norvegicus, UniProt P35439+Q00959)
Sequence (Q00959 whole entry, other chains not shown): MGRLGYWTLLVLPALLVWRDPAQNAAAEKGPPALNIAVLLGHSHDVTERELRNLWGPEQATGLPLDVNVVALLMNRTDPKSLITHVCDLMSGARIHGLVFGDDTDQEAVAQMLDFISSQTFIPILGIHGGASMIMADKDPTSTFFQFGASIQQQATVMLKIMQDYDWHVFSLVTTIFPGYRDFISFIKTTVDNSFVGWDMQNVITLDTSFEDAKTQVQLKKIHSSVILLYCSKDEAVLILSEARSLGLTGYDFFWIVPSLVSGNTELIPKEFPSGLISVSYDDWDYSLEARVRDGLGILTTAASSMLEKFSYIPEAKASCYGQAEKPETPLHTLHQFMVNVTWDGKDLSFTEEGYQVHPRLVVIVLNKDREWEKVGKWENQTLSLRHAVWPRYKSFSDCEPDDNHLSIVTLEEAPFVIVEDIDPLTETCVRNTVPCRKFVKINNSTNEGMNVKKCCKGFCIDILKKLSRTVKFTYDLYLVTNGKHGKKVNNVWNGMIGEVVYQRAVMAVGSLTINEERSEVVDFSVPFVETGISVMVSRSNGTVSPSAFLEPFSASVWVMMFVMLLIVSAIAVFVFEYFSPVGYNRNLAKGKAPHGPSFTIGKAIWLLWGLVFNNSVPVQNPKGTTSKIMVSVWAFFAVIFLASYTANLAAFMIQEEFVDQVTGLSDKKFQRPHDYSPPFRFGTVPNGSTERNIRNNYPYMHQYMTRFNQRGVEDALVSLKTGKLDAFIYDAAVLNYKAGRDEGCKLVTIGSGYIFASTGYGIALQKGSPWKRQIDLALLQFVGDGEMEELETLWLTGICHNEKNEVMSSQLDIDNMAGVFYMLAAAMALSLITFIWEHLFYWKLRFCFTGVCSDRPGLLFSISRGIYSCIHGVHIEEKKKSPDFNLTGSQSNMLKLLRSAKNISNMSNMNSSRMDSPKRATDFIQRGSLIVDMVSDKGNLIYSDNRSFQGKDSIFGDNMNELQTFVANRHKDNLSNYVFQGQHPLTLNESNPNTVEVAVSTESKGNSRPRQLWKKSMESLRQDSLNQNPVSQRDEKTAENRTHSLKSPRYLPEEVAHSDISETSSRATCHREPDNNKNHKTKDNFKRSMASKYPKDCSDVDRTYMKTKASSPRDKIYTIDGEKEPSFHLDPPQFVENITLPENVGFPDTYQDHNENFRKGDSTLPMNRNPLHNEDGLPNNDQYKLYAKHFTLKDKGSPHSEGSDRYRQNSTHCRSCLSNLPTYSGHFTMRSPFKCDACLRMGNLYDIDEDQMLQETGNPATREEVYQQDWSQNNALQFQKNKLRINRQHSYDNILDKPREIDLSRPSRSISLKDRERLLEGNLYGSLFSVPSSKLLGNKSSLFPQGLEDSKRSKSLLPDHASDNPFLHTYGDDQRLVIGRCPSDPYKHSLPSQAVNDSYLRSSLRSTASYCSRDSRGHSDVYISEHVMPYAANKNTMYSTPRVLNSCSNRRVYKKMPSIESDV
Test: Antagonist activity at rat recombinant NR1-NR2A receptor expressed in Xenopus oocytes at holding potential of -40mV by two-electrode voltage-clamp electrophysiology
Format: functional, cell-based, Oocyte
Conditions: read-out: IC50
pIC50: −log10 of the molar value.
Please enter true where pIC50 is greater than or equal to 4, and false where it is lower.

Illustrative cases are given below, each with its answer.
                               query_smiles  qualitative_label
0  O=C(O)c1ccc(-n2c(/C=C/c3ccccc3[N+](=O)[O-])nc3ccccc3c2=O)cc1               true
1  COc1ccccc1-n1c(/C=C/c2cccc([N+](=O)[O-])c2)nc2ccccc2c1=O              false
2  O=C(O)c1ccc(-n2c(/C=C/c3cccc([N+](=O)[O-])c3)nc3ccc(/C=C/c4ccccc4)cc3c2=O)cc1               true
3  O=C(O)c1ccc(-n2c(/C=C/c3ccc(OC(F)F)cc3)nc3ccccc3c2=O)cc1               true
4  O=C(O)c1ccc(-n2c(/C=C/c3cccc([N+](=O)[O-])c3)nc3c(Cl)cccc3c2=O)cc1               true
5  COc1ccc(-n2c(/C=C/c3ccccc3[N+](=O)[O-])nc3ccccc3c2=O)cc1              false

Please indicate if the recorded pIC50 for `Cc1cccc(/C=C/c2nc3ccccc3c(=O)n2-c2ccc(C(=O)O)cc2)c1` meets or exceeds 4.
true

Note, next up: `COc1ccc(-n2c(/C=C/c3cccc([N+](=O)[O-])c3)nc3ccccc3c2=O)cc1`
false

Note, next up: `O=C(O)c1ccc(-n2c(/C=C/c3ccc([N+](=O)[O-])cc3)nc3ccc(I)cc3c2=O)cc1`
false
